Each entry below carries its reported growth inhibition.
# Method description: NCI Yeast Anticancer Drug Screen. Data for the bub3 strain (AID 167)
# Condition label: S. cerevisiae bub3 mutant strain, at 50.0 µM, hits give high values
# Experimental: Growth inhibition of yeast strains with defined genetic alterations is measured as a screen for potential anti-cancer activity. Selected strains with alterations in DNA damage repair or cell cycle control were exposed to compounds and growth inhibition was measured relative to vehicle treated controls. The strain used in this assay is bub3
Compounds without any hit were thinned out: in the full panel of roughly 79,000, 15% have a hit.
Please give a number only; it is taken to be in %.

COC(=O)C1=NOC(COc2ccc([N+](=O)[O-])cc2)C1 (centres undefined) : -1.65
COCc1cc(CC(C)=O)nc(C/C=N/NC(N)=O)n1 : -47
COc1cc(C2CC=CCC2C(=O)O)cc(OC)c1OC (centres undefined) : -0.25
C(=C\c1ccc2ccccc2c1)/c1ccc2ccccc2c1 : 6.85
Cc1ccc(C(=O)NO)cc1 : 13.8

Record Cc1cc(C)c(CSc2cc(N)nc(N)c2N)c(C)c1 . Reported growth inhibition: 6.9

Record C[Si](C)(/C(=C/COCc1ccccc1)CCOC1CCCCO1)c1ccccc1 (centres undefined) . Reported growth inhibition: 0.6

Ref: PubChem BioAssay (NCI)
